Tested on: Candida parapsilosis clinical isolate CP1
Assay: MIC, broth microdilution (CLSI M27-A3), CP1
Type: cell-based
Conditions: Lodderomyces parapsilosis; MIC-0, CP1, 35 °C 48 h
Measure: MIC (µg/mL)

[1] CCCCCCCCCCCC(=O)NC[C@H]1O[C@H](O[C@@H]2[C@@H](O)[C@H](O[C@H]3O[C@H](CN)[C@@H](O)C[C@H]3N)[C@@H](N)C[C@H]2N)[C@H](O)[C@@H](N)[C@@H]1O
[2] CCCCCCCCCCCCSC[C@H]1O[C@H](O[C@@H]2[C@@H](O)[C@H](O[C@H]3O[C@H](CN)[C@@H](O)C[C@H]3N)[C@@H](N)C[C@H]2N)[C@H](O)[C@@H](N)[C@@H]1O
[3] CCCCCCCCCCCCc1cn(C[C@H]2O[C@H](O[C@@H]3[C@@H](O)[C@H](O[C@H]4O[C@H](CN)[C@@H](O)C[C@H]4N)[C@@H](N)C[C@H]3N)[C@H](O)[C@@H](N)[C@@H]2O)nn1
Q) Arrange the above in rising order of MIC. Write the labels out in the order the request specifies.
A) 3, 2, 1
(3: 3.9 µg/mL, 2: 15.6 µg/mL, 1: 31.3 µg/mL)

* * *

Listed here are compounds together with their documented IC50.
System: BEAS-2B cell line
Assay: In vitro cytotoxicity assay (resazurin), BEAS-2B
Assay type: cell-based, human
Details: Homo sapiens, 24 h, resazurin

Q) Entry CCCCCCCCCCc1cn(C[C@H]2O[C@H](O[C@@H]3[C@@H](O)[C@H](O[C@H]4O[C@H](CN)[C@@H](O)C[C@H]4N)[C@@H](N)C[C@H]3N)[C@H](O)[C@@H](N)[C@@H]2O)nn1 [Compound 7a] , system BEAS-2B cell line: what IC50 was measured?
A) > 62.5 mg/L

Q) Entry CCCCCCCCCCCC(=O)NC[C@H]1O[C@H](O[C@@H]2[C@@H](O)[C@H](O[C@H]3O[C@H](CN)[C@@H](O)C[C@H]3N)[C@@H](N)C[C@H]2N)[C@H](O)[C@@H](N)[C@@H]1O [Compound 9] , system BEAS-2B cell line: what IC50 was measured?
A) > 62.5 mg/L

Q) Entry CCCCCCCCCCCCS(=O)(=O)C[C@H]1O[C@H](O[C@@H]2[C@@H](O)[C@H](O[C@H]3O[C@H](CN)[C@@H](O)C[C@H]3N)[C@@H](N)C[C@H]2N)[C@H](O)[C@@H](N)[C@@H]1O [Compound 4] , system BEAS-2B cell line: what IC50 was measured?
A) > 62.5 mg/L

Q) Entry CCCCCCCCCCCCSC[C@H]1O[C@H](O[C@@H]2[C@@H](O)[C@H](O[C@H]3O[C@H](CN)[C@@H](O)C[C@H]3N)[C@@H](N)C[C@H]2N)[C@H](O)[C@@H](N)[C@@H]1O [Compound 3] , system BEAS-2B cell line: what IC50 was measured?
A) 31.3 to 62.5 mg/L

# ---- query compound ----
Q) Entry CCCCCCCCCCCCc1cn(C[C@H]2O[C@H](O[C@@H]3[C@@H](O)[C@H](O[C@H]4O[C@H](CN)[C@@H](O)C[C@H]4N)[C@@H](N)C[C@H]3N)[C@H](O)[C@@H](N)[C@@H]2O)nn1 [Compound 7b] , system BEAS-2B cell line: what IC50 was measured?
A) > 62.5 mg/L

The reported measurements were obtained from paper PMC5971061.
